target: Y641N EZH2 (Homo sapiens, UniProt Q15910, Y641N); test: Y641N EZH2 activity inhibition assay (as EZH2 assay, reconstituted H3K27Me2 oligonucleosomes as substrate); settings: Y641N EZH2 mutant enzyme
Sequence (Q15910 whole entry Y641N): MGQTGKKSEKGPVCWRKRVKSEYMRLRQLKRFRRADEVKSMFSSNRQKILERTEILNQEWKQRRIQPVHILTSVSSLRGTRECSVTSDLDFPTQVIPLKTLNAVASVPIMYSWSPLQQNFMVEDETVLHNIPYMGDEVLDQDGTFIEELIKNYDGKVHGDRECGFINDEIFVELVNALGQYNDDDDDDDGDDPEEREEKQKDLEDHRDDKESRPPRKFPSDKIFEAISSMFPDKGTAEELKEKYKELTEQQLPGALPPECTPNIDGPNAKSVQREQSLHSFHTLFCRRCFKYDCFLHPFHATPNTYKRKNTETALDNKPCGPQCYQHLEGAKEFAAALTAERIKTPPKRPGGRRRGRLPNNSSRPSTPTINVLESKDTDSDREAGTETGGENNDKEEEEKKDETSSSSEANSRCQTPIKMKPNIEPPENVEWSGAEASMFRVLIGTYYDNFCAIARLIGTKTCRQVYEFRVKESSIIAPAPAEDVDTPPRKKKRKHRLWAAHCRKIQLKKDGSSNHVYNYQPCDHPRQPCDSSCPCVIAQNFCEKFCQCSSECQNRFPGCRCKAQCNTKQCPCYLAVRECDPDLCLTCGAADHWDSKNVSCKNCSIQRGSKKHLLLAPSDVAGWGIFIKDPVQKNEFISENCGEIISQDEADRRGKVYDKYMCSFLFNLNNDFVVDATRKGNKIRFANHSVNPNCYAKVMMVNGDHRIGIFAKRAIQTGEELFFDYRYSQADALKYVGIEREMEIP
Sequence (O75530 whole entry partner): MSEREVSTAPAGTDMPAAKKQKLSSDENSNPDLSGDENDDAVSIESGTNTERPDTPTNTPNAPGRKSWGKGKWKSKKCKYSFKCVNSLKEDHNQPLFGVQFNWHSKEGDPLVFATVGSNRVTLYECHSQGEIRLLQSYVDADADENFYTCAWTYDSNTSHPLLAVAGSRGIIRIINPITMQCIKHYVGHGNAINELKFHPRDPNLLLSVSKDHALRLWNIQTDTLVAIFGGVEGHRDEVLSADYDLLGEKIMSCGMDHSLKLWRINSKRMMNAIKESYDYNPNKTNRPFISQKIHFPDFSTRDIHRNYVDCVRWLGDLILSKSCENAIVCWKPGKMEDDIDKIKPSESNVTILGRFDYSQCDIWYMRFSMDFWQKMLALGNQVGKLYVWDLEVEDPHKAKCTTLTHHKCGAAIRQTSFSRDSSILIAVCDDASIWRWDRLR
Sequence (Q15022 whole entry partner): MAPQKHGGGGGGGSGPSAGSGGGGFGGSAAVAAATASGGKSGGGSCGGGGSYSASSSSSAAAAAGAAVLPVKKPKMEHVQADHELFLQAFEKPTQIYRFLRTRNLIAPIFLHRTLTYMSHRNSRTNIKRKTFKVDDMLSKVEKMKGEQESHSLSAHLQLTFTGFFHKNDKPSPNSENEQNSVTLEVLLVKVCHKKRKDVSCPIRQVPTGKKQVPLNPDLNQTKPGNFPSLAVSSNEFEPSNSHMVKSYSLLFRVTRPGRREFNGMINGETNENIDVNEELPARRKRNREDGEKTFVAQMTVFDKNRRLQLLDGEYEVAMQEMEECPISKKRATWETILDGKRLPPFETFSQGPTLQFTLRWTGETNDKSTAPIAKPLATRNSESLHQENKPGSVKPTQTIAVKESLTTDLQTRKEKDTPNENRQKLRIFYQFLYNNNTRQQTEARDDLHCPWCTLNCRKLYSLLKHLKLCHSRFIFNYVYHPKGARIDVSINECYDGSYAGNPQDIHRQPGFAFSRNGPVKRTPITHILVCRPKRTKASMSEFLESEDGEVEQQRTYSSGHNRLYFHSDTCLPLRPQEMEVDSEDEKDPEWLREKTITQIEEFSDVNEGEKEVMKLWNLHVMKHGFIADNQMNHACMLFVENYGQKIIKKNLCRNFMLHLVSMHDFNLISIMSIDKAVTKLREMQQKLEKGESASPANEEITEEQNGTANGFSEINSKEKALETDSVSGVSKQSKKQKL
measuredProperty: IC50

Query block: # get_value(readout= IC50, system= Y641N EZH2 (Homo sapiens, UniProt Q15910, Y641N)) for CCC(Oc1ccccc1)c1ccc(C(=O)NCc2c(C)cc(C)[nH]c2=O)cc1 (centres unmarked)
Result block: < 1 µM

Query block: Can you check Cc1cc(C)c(CNC(=O)c2ccc3c(c2)CCCC3Oc2ccccc2)c(=O)[nH]1 (centres unmarked) next?
Result block: 10 to 50 µM

----------
target: Y641N EZH2 (Homo sapiens, UniProt Q15910, Y641N); assay: Y641N EZH2 activity inhibition assay (as EZH2 assay, reconstituted H3K27Me2 oligonucleosomes as substrate); details: Y641N EZH2 mutant enzyme
Each entry below lists one item and its recorded IC50 value.

Query block: # get_value(readout= IC50, system= Y641N EZH2 (Homo sapiens, UniProt Q15910, Y641N)) for Cc1cc(C)c(CNC(=O)c2ccc(COc3ccccc3)cc2C)c(=O)[nH]1
Result block: 1 to 10 µM

Query block: Can you check Cc1cc(C)c(CNC(=O)c2ccc(C(C)N3CCCCC3=O)cc2)c(=O)[nH]1 (stereo not shown) next?
Result block: > 80 µM

Query block: Can you check Cc1cc(C)c(CNC(=O)c2ccc(C(O)c3ccccc3)cc2)c(=O)[nH]1 (stereo not shown) next?
Result block: > 50 µM

Query block: Can you check COc1ccnc(Oc2ccc(C(=O)NCc3c(C)cc(C)[nH]c3=O)cc2)n1 next?
Result block: > 80 µM

Query block: Can you check COC(c1ccccc1)c1ccc(C(=O)NCc2c(C)cc(C)[nH]c2=O)cc1 (stereo not shown) next?
Result block: 10 to 50 µM

Query block: Can you check Cc1cc(C)c(CNC(=O)c2ccc(COc3cccc(-c4ccc(N)nc4)c3)cc2)c(=O)[nH]1 next?
Result block: 1 to 10 µM

Pending compound:
Query block: # get_value(readout= IC50, system= Y641N EZH2 (Homo sapiens, UniProt Q15910, Y641N)) for Cc1cc(C)c(CNC(=O)c2ccc(C(C)Oc3cccnc3)nc2)c(=O)[nH]1 (stereo not shown)
Result block: > 80 µM

----------
biological target: Y641N EZH2 (Homo sapiens, UniProt Q15910, Y641N); assay: Y641N EZH2 activity inhibition assay (as EZH2 assay, reconstituted H3K27Me2 oligonucleosomes as substrate); details: Y641N EZH2 mutant enzyme
Each entry below lists one item and its recorded IC50 value.

The examples below pair each entry with its known result.
Query block: For Cc1nc(C)c(CNC(=O)c2ccc(Oc3ccccc3)cc2)c(=O)[nH]1 , what is its reported IC50?
Result block: 1 to 10 µM

Query block: Can you check Cc1cc(C)c(CNC(=O)c2ccc(Oc3ccccc3)cn2)c(=O)[nH]1 next?
Result block: 10 to 50 µM

Query block: Can you check Cc1cc(C)c(CNC(=O)c2ccc(C(C)Oc3ccccn3)cc2)c(=O)[nH]1 (stereo not shown) next?
Result block: 1 to 10 µM

Others:
Query block: For Cc1cc(C)c(CNC(=O)c2ccc([C@H](C)Oc3ccccc3C#N)cc2)c(=O)[nH]1 , what is its reported IC50?
Result block: < 1 µM

----------
target: Y641N EZH2 (Homo sapiens, UniProt Q15910, Y641N); test: Y641N EZH2 activity inhibition assay (as EZH2 assay, reconstituted H3K27Me2 oligonucleosomes as substrate); details: Y641N EZH2 mutant enzyme
measuredProperty: IC50

Query block: For Cc1cc(C)c(CNC(=O)c2ccc([C@H](C)Oc3ccccc3)cc2C)c(=O)[nH]1 , what is its reported IC50?
Result block: < 1 µM

Query block: Can you check Cc1cc(C)c(CNC(=O)c2ccc(CN3CCCCC3)cc2C)c(=O)[nH]1 next?
Result block: 10 to 50 µM

Query block: Can you check Cc1ccc(OC(C)c2ccc(C(=O)NCc3c(C)cc(C)[nH]c3=O)cc2)cc1 (centres unmarked) next?
Result block: 1 to 10 µM

Query block: Can you check Cc1cc(C)c(CN(C)C(=O)c2ccc(Oc3cccc(-c4ccncn4)c3C#N)c(Cl)c2)c(O)n1 next?
Result block: > 50 µM

Query block: Can you check Cc1cc(C(F)(F)F)[nH]c(=O)c1CNC(=O)c1ccc(Oc2ccccc2)cc1 next?
Result block: 10 to 50 µM

Others:
Query block: For Cc1cc(C)c(CNC(=O)c2ccc([S+]([O-])c3ccccc3)cc2)c(=O)[nH]1 (centres unmarked) , what is its reported IC50?
Result block: > 80 µM

Query block: Can you check Cc1cc(C)c(CNC(=O)c2ccc(C(C)Oc3ccccc3)nn2)c(=O)[nH]1 (centres unmarked) next?
Result block: > 80 µM

Query block: Can you check Cc1cc(C)c(CNC(=O)c2ccc(C(C)Oc3ccccc3)cc2)c(=O)[nH]1 (centres unmarked) [Compound I-23] next?
Result block: < 1 µM

Query block: Can you check Cc1cc(C)c(CNC(=O)c2ccc(C(C)Oc3ncccn3)cc2)c(=O)[nH]1 (centres unmarked) next?
Result block: > 80 µM

Query block: Can you check Cc1cc(C)c(CNC(=O)c2ccc(C(C)Oc3ccccc3)c(F)c2)c(=O)[nH]1 (centres unmarked) [Compound I-63] next?
Result block: < 1 µM

----------
molecular target: Y641N EZH2 (Homo sapiens, UniProt Q15910, Y641N); assay: Y641N EZH2 activity inhibition assay (as EZH2 assay, reconstituted H3K27Me2 oligonucleosomes as substrate); format: biochemical; settings: Y641N EZH2 mutant enzyme
measuredProperty: IC50

Query block: For Cc1cc(C)c(CNC(=O)c2ccc(C3Cc4ccccc4O3)cc2)c(=O)[nH]1 (centres unmarked) , what is its reported IC50?
Result block: > 80 µM

Query block: Can you check COc1cc(Oc2ccccc2)ccc1C(=O)NCc1c(C)cc(C)[nH]c1=O next?
Result block: 1 to 10 µM

Query block: Can you check Cc1cc(C)c(CNC(=O)c2ccc(CNc3ccccc3)cc2)c(=O)[nH]1 next?
Result block: 10 to 50 µM

Query block: Can you check Cc1cc(C)c(CNC(=O)c2ccc([C@H](C)Oc3ccccc3)cc2)c(O)n1 next?
Result block: < 1 µM

Query block: Can you check Cc1cc(C)c(CNC(=O)c2ccc(Oc3ccccc3)cc2C)c(=O)[nH]1 next?
Result block: 10 to 50 µM

Query block: Can you check Cc1cc(C)c(CNC(=O)c2ccc(C(C)OC3CCCCC3)cc2)c(=O)[nH]1 (centres unmarked) next?
Result block: 1 to 10 µM

Query block: Can you check Cc1cc(C)c(CNC(=O)c2ccc(C(C)Oc3ccccc3)nc2)c(=O)[nH]1 (centres unmarked) next?
Result block: > 80 µM

Query block: Can you check Cc1cc(C)c(CNC(=O)c2ccc(OCc3ccccc3)cc2)c(=O)[nH]1 next?
Result block: 10 to 50 µM

Query block: Can you check Cc1cc(C)c(CNC(=O)c2ccc(CCc3ccccc3)cc2)c(=O)[nH]1 next?
Result block: > 80 µM

Query block: Can you check Cc1cc(C)c(CNC(=O)c2ccc(Oc3ccccc3C#N)c(Cl)c2)c(=O)[nH]1 next?
Result block: 1 to 10 µM

Query block: Can you check COCC(Oc1ccccc1)c1ccc(C(=O)NCc2c(C)cc(C)[nH]c2=O)cc1 (centres unmarked) next?
Result block: > 80 µM

Query block: Can you check CNc1cc(C)[nH]c(=O)c1CNC(=O)c1ccc(Oc2ccccc2)cc1 next?
Result block: > 80 µM

Query block: Can you check COc1cc(C)[nH]c(=O)c1CNC(=O)c1ccc(Oc2ccccc2)cc1 next?
Result block: 1 to 10 µM

Query block: Can you check Cc1cc(C)c(CNC(=O)c2ccc([C@H](C)Oc3cccc(C#N)c3)cc2)c(=O)[nH]1 next?
Result block: < 1 µM

Query block: Can you check Cc1cc(C)c(CNC(=O)c2ncc(Oc3ccccc3)cn2)c(=O)[nH]1 next?
Result block: > 80 µM

Query block: Can you check Cc1cc(C)c(CNC(=O)c2ccc(C(CC(C)C)Oc3ccccc3)cc2)c(=O)[nH]1 (centres unmarked) next?
Result block: 10 to 50 µM

Query block: Can you check Cc1cc(C)c(CNC(=O)c2ccc(COc3ccccc3)cc2)c(=O)[nH]1 next?
Result block: 1 to 10 µM

----------
Each entry below lists one item and its recorded pIC50 value.
target: EZH2 (Homo sapiens, UniProt Q15910)
Sequence (Q15910 whole entry): as the sequence (Q15910 whole entry Y641N) above, with N641Y counted along it
Sequence (O75530 whole entry partner): as the sequence (O75530 whole entry partner) above
Sequence (Q15022 whole entry partner): as the sequence (Q15022 whole entry partner) above
pIC50: −log10 of the molar value.

The examples below pair each entry with its known result.
Query block: For Cc1cc(C)c(CNC(=O)c2ccc([S+]([O-])c3ccccc3)cc2)c(=O)[nH]1 (centres unmarked) [Compound I-29] , what is its reported pIC50?
Result block: 4.30 to 5.00

Query block: Can you check Cc1cc(C)c(CNC(=O)c2ccc([C@@H](C)Oc3ccccc3C#N)cc2)c(=O)[nH]1 [Compound I-162] next?
Result block: 5.00 to 6.00

Others:
Query block: For Cc1cc(C)c(CNC(=O)c2ccc(C(C)N3CCCCC3=O)cc2)c(=O)[nH]1 (centres unmarked) [Compound I-88] , what is its reported pIC50?
Result block: 5.00 to 6.00

Query block: Can you check Cc1c[nH]c(=O)c(CNC(=O)c2ccc(C(C)Oc3ccccc3)cc2)c1 (centres unmarked) [Compound I-156] next?
Result block: < 4.10

Query block: Can you check Cc1cc(C)c(CNC(=O)c2ccc([C@@H](C)Oc3cccc(C#N)c3)cc2)c(=O)[nH]1 [Compound I-168] next?
Result block: 5.00 to 6.00
